Origin of values: patent US8802597B2

Plant response rating, Pigweed values, listed per item
Test system: pigweed (Amaranthus retroflexus)
Test Method Notes: Test B pre/postemergence
Assay type: in vivo
Assay Conditions: Preemergence, 125 g ai/ha; scale 0 to 100 (0 no effect, 100 complete control)

Compound	Plant response rating, Pigweed
COC(=O)c1nc(-c2ccc(Cl)cc2)nc(N)c1Br [Compound 83]	100
Nc1nc(-c2ccc(Br)cc2)nc(C(=O)O)c1Br [Compound 136]	100
Nc1nc(C2CC2)nc(C=NO)c1Br [Compound 27]	90
COC(=O)c1nc(-c2ccc(C(F)(F)F)cc2)nc(N)c1Cl [Compound 44]	70
CCOC(=O)c1nc(C2CC2)nc(NOC(C)(C)C)c1Br [Compound 55]	80

---

Test system: giant foxtail (Setaria faberi)
Test Method Notes: Test A pre/postemergence
Format: in vivo
Assay Conditions: Preemergence, 125 g ai/ha; 0 to 100 scale where 0 is no effect and 100 is complete control; approximately ten days
Quantity Measured: Plant response rating, Foxtail, Giant

Molecule	Target Desc	Quantity Measured	Endpoint Result
CC1(C)OCC(COC(=O)c2nc(C3CC3)nc(N)c2Cl)O1 (stereo not shown)	giant foxtail (Setaria faberi)	Plant response rating, Foxtail, Giant	40
Nc1nc(-c2ccc(Cl)cc2)nc(C(=O)OCc2ccccc2)c1Cl	giant foxtail (Setaria faberi)	Plant response rating, Foxtail, Giant	0
COC(=O)c1nc(-c2cccc(C)c2)nc(N)c1Cl	giant foxtail (Setaria faberi)	Plant response rating, Foxtail, Giant	5
CC(C)c1nc(N)c(Cl)c(C(=O)[O-])n1.[Na+]	giant foxtail (Setaria faberi)	Plant response rating, Foxtail, Giant	0
Nc1nc(-c2ccc(Cl)cc2)nc(C(=O)O)c1Br	giant foxtail (Setaria faberi)	Plant response rating, Foxtail, Giant	10
CNc1nc(-c2ccc(Cl)cc2)nc(C(=O)OC)c1Cl	giant foxtail (Setaria faberi)	Plant response rating, Foxtail, Giant	0
Nc1nc(C2CC2)nc(C(=O)OCC2COC(=O)O2)c1Cl (stereo not shown)	giant foxtail (Setaria faberi)	Plant response rating, Foxtail, Giant	35
CCOC(=O)c1nc(-c2ccc(F)cc2)nc(N)c1Br	giant foxtail (Setaria faberi)	Plant response rating, Foxtail, Giant	0
CC(C)N.Nc1nc(C2CC2)nc(C(=O)O)c1Cl	giant foxtail (Setaria faberi)	Plant response rating, Foxtail, Giant	35
Nc1nc(-c2ccc(F)cc2)nc(C(=O)O)c1Cl	giant foxtail (Setaria faberi)	Plant response rating, Foxtail, Giant	0

---

Tested on: smallflower umbrella sedge (Cyperus difformis)
Test Method Notes: Test E flooded paddy water application
Type: in vivo
Assay Conditions: Flood, 16 g ai/ha; scale 0 to 100 (0 no effect, 100 complete control); 21 days
From the text: Three plastic pots (ca. 16-cm diameter) per rate were partially filled with sterilized Tama silt loam soil comprising a 35:50:15 ratio of sand, silt and clay and 2.6% organic matter. Separate plantings for each of the three pots were as follows. Seeds from the U.S. of ducksalad (Heteranthera limosa), smallflower umbrella sedge (Cyperus difformis) and purple redstem (Ammannia coccinea), were planted into one 16-cm pot for each rate. […]
Quantity Measured: Plant response rating, Sedge, Umbrella

Chemical String	Endpoint Result
COC(=O)c1nc(-c2ccc(Br)cc2)nc(N)c1Br	0
CNc1nc(-c2ccc(Cl)cc2)nc(C(=O)OC)c1Cl	0
CCOC(=O)c1nc(-c2ccc(I)cc2)nc(N)c1Cl	0
CCOC(=O)c1nc(-c2ccc(Cl)c(Cl)c2)nc(N)c1Cl	0
CCOC(=O)c1nc(-c2ccc(F)cc2)nc(N)c1Br	70
CCOC(=O)c1nc(-c2ccc3c(c2)OCO3)nc(N)c1Cl	0
